tested_on: D(2) dopamine receptor (Rattus norvegicus)
Sequence (P61169 whole entry): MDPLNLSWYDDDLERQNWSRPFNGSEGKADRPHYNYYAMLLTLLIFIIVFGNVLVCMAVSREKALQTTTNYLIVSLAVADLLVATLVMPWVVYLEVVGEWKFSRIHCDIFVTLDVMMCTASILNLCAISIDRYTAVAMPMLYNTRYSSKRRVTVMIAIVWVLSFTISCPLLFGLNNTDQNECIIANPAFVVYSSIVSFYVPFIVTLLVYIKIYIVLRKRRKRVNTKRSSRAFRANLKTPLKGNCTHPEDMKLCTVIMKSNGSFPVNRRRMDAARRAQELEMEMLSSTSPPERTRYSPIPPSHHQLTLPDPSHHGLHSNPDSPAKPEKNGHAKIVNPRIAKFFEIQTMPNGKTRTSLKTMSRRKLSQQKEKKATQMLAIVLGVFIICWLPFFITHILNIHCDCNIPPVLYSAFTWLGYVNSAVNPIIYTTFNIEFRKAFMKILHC
protocol: Compound was tested for its inhibitory effect on the binding profile in Dopamine receptor D2 using [3H]haloperidol in rat brain.
value_type: IC50 (µM)
Number only, in µM; omit the unit.

Entry "O=c1ccoc2cc(OCCCN3CCN(c4ccccn4)CC3)ccc12" , tested on D(2) dopamine receptor (Rattus norvegicus), has a reported IC50 of 1.08

###

Please respond with reported inhibition for every item in the list.
tested_on: Dopamine receptor (Rattus norvegicus) (UniProt P25115+P19020+P30729+P18901+P61169)
protocol: Inhibitory binding activity against dopamine receptor in rat striatal membranes using [3H]HAL as the radioligand.
Assay type: cell membranes
Set-up: concentration or dose not given beside the values
run_conditions: Striatum; Membrane; concentration not given here
Express your answer in %, writing the number without its unit.

inhibition on Dopamine receptor (Rattus norvegicus) (UniProt P25115+P19020+P30729+P18901+P61169) for "Cc1ccccc1N1CCN(CCCOc2ccc3c(=O)ccoc3c2)CC1" is 29

Field inhibition (system: Dopamine receptor (Rattus norvegicus) (UniProt P25115+P19020+P30729+P18901+P61169)) for entry "COc1ccccc1N1CCN(CCCOc2ccc3c(=O)ccoc3c2)CC1" = 48

Measured on Dopamine receptor (Rattus norvegicus) (UniProt P25115+P19020+P30729+P18901+P61169), "O=c1ccoc2cc(OCCCN3CCN(c4ccc(Cl)c(Cl)c4)CC3)ccc12" has a documented inhibition of 23
